Biological target: PI3Kδ (Homo sapiens)
Sequence (O00329 whole entry): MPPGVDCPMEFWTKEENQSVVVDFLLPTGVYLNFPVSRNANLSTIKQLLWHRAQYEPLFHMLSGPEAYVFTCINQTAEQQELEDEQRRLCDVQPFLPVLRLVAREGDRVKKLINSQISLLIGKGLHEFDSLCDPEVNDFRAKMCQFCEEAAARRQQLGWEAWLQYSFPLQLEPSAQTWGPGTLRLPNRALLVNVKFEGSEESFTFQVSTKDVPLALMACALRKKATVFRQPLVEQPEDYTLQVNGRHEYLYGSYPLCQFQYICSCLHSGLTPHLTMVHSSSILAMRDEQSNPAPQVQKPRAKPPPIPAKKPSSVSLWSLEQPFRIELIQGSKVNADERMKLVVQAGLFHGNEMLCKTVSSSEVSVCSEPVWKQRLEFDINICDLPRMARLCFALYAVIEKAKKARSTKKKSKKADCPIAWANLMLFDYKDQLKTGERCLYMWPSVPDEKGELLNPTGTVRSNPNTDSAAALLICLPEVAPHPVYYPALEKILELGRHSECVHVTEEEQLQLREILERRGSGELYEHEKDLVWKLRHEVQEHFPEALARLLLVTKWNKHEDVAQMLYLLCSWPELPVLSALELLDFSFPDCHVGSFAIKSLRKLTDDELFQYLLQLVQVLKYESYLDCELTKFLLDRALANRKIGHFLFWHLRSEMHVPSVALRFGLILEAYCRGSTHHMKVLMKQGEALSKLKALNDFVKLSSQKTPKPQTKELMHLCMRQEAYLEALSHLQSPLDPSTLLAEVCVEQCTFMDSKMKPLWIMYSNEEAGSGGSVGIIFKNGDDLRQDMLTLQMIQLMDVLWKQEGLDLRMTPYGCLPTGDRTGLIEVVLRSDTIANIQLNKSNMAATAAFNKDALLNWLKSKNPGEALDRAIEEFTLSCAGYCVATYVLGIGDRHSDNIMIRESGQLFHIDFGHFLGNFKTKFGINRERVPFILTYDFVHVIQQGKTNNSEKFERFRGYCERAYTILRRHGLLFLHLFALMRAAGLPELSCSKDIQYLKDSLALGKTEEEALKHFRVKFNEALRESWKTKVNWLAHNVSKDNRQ
Sequence (P27986 whole entry partner): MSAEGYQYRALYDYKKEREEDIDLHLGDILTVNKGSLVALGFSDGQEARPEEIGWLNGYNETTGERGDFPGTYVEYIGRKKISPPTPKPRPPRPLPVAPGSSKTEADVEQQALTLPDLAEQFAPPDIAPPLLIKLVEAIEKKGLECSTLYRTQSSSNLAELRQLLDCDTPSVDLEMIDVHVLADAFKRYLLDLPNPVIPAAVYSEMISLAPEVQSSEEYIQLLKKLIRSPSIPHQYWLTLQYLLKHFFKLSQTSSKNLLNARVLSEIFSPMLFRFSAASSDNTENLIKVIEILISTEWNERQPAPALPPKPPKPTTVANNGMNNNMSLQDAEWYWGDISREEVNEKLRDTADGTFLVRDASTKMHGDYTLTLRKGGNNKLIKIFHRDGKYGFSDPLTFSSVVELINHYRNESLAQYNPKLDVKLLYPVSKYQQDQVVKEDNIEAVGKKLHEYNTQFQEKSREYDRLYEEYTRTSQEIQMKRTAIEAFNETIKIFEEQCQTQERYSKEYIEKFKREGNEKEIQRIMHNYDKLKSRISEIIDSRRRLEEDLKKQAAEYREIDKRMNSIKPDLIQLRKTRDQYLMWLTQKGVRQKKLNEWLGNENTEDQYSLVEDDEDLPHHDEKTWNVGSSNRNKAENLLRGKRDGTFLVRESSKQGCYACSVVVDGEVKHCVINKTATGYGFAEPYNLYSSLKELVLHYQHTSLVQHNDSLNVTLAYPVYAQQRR
Assay: In vitro determination of the PI3K enzyme inhibitory activity in the cell free assay (ADP-Glo Kinase Assay), PI3Kδ
Settings: ATP 80 μM, read-out: PI3K delta inhibition
Protocol: In vitro Determination of the PI3K Enzyme Inhibitory Activity in the Cell Free Assay Human recombinant proteins PI3Kα, PI3Kβ, PI3Kγ and PI3Kδ were purchased from Millipore Ltd (Billerica, Mass.). Compounds were dissolved at 0.5 mM in DMSO and were tested at different concentrations for their activity against PI3Ks using the ADP-Glo™ Kinase Assay (Promega, Madison Wis.) according to the manufacturer's instructions. […]
pIC50: −log10 of the molar value.
Property measured: pIC50

See these solved cases before continuing.
Compound: C[C@@H](c1cc2ccccn2c1-c1ccccn1)n1nc(-c2cc(O)cc(F)c2)c2c(N)ncnc21 (single isomer, unassigned) [Example 81]
Subject of test: PI3Kδ (Homo sapiens)
pIC50: 6.00 to 8.00
--
Compound: c1ccc(-c2c(CNc3ncnc4[nH]cnc34)cc3ccccn23)cc1
Subject of test: PI3Kδ (Homo sapiens)
pIC50: < 6.00
--
Compound: Nc1ncnc2c1c(-c1cc(O)cc(F)c1)nn2Cc1cc2ccccn2c1-c1ccncc1
Subject of test: PI3Kδ (Homo sapiens)
pIC50: > 8.00
--
Compound: CC(Nc1ncnc(N)c1C#N)c1cc2ccccn2c1-c1cccnc1 (centres unmarked)
Subject of test: PI3Kδ (Homo sapiens)
pIC50: 6.00 to 8.00

Would you kindly look at the next entry?
Specify reported pIC50 for the compound shown: CC(c1cc2ccccn2c1-c1ccccn1)n1nc(C#CCO)c2c(N)ncnc21 (centres unmarked)
6.00 to 8.00
